Source listed as BigSolDB 2.1.

# Conditions: in isopropanol, 308.15 K
Quantity Name: solubility (mole fraction)
Please give only the number in your answer, with no unit.

Retrieve solubility (mole fraction) measured for COc1cc(/C=C/C(=O)CC(=O)/C=C/c2ccc(O)c(OC)c2)ccc1O and print it.
0.00319

---

# Conditions: in n-heptane, 298.15 K
Quantity Name: solubility (mole fraction)
Enter a number only.

Note down solubility (mole fraction) recorded for COc1cc(/C=C/C(=O)CC(=O)/C=C/c2ccc(O)c(OC)c2)ccc1O
0.00022

---

# Conditions: in ethyl acetate, 293.15 K
Quantity Name: solubility (mole fraction)
Please respond with just the number, no unit label.

Return solubility (mole fraction) for the following compound: COc1cc(/C=C/C(=O)CC(=O)/C=C/c2ccc(O)c(OC)c2)ccc1O
0.00253

---

# Conditions: in THF, 283.15 K
Quantity Name: solubility (mole fraction)
// return a plain number; no unit text

Please supply the value of reported solubility (mole fraction) for the item COc1cc(/C=C/C(=O)CC(=O)/C=C/c2ccc(O)c(OC)c2)ccc1O
0.134

---

# Conditions: in n-heptane, 313.15 K
Quantity Name: solubility (mole fraction)

Quickly give me recorded solubility (mole fraction) for COc1cc(/C=C/C(=O)CC(=O)/C=C/c2ccc(O)c(OC)c2)ccc1O
0.00038

---

# Conditions: in m-xylene, 308.15 K
Quantity Name: solubility (mole fraction)
The response must contain the number and no unit.

State, in one line, measured solubility (mole fraction) of COc1cc(/C=C/C(=O)CC(=O)/C=C/c2ccc(O)c(OC)c2)ccc1O
0.00042
